meta.source: the domain aggregation screens of Martell et al. (2025)

Reported soluble fraction (log2) values for a set of sequences
assay: soluble fraction after stress (log2 fold change); higher = more stays soluble; pooled small domains, quantitative proteomics; conditions: stress: 50 degC
Reply with the value as a number alone.

Study these solved cases before continuing.
[[record]]
sequence_input = "HMGSKQVSVPDVRNLDYERASQQLREAGFVVGDVLRIRDDRAPAGTVIAQSPAAPALVPENARVSLLVSSG"
recorded_measurement = 0.251

[[record]]
sequence_input = "HMSLEEIPLEERLGPGGLDPVAVYDSLPREMRDAFDSGSVSALREFVNALPAEDAARHMKAMVDSGLWVPT"
recorded_measurement = 0.0547

[[record]]
sequence_input = "HMEIIMIVITKPSITDERIAEIVAVIERNGGVQAHVSKGTDRTVIGIIGKAEPTLAEHLRQMKGVENVIKI"
recorded_measurement = 0.0636

[[record]]
sequence_input = "HMYLYADIYKKLEEKIKNMEVGEKLPSERAMVQEYGVSRNVLREALVLLSERGLIEIRPGKGSYVTNQQ"
recorded_measurement = -0.436

[[record]]
sequence_input = "HMSDIATLVPGPTDAELAASALRGLDAALDADTPVRLSLGEPGGEVEVPRSVLAALARVLDSFAHGEGVTL"
recorded_measurement = -0.136

[[record]]
sequence_input = "HMTGEDIKKVILREYAREKSLLSIFHELSKVNSNVTLEVIKDIITNIDKLPNDLLQYFKEESSFYQKNKN"
recorded_measurement = -0.397

[[record]]
sequence_input = "HMGPVRRDLEINGRMVPLTIREHARATRITLRIEPGGQALRLTIPPGLPTREVDSFLTRHHGWLMTKLAHI"
recorded_measurement = -1.79


Next sequence, soluble fraction (log2) to be filled in.
# input If you can, please state the reported soluble fraction (log2) value of "HMLAKRYLVYGSGSLNSAYPDTKNIAYGIDSGKGFFLVGILTENEASKLKLKGYYVIEDFPLDFH" .
# output -1.43

----------
experiment: soluble fraction after stress (log2 fold change); higher = more stays soluble; pooled small domains, quantitative proteomics; conditions: stress: 50 degC
I would appreciate it if you labelled entries Met when soluble fraction (log2) is -0.2 or higher, otherwise Not met.

[[record]]
sequence_input = "HMQNSYSVEDLALKAGLSVDTIRYYQGLDLIAPPQKNGRRAIYGDEHLSRLDEIKKLALEGFSLRQISLLK"
group = "Not met"

[[record]]
sequence_input = "HMLDTELEANLRSQRDQKLVEELDPIVTNPLRWAELTSDKQTEWTQYRTDLLNVPQQSGFPTNVTWPEKP"
group = "Met"

[[record]]
sequence_input = "HMYSYNKEEVGKRIKSIRQQKGLTQESFGELFGASKGNVATWEKGISLPNASRLREIADLVSITVEELLYG"
group = "Not met"


# input Would you say "HMSDIQKGTQINLVNEPLYVSSKTSIVSTYKTGTYYTWGFEANNRIAITNKLENIGVKGQVTGWINKP" shows soluble fraction (log2) at minimum -0.2?
# output Not met

# input In plain terms: is recorded soluble fraction (log2) at least -0.2 for "HMDKVEQLMQNPVIQEKMSEGDRELLRNASLVVLGRLEDDGSIIQRFVELFGEEAYERLKSELM" ?
# output Met

# input Dear colleague, could you confirm whether "HMATIADILAEHKDKEGPLLPVLHDVQKMFGHVSEEAMREIAQALNLTRAEVYGVVSFYHDFRKEVE" has soluble fraction (log2) at or above -0.2?
# output Not met

# input Form field: soluble fraction (log2) at least -0.2? Entry: "HMSVSVEEDADGRVWVYYQDQKMDITDLFDENGVYGFNLEKGDRTVYVEVTKNADGTYSFTQTD"
# output Met

# input Does the sequence "HMLPNIKSEMEILGDNAKARLEAAELWSKKYLSNEAYDTMSKLATTADGVKAIEEIMNITKS" have recorded soluble fraction (log2) that is -0.2 or more?
# output Met

# input Quick check: does "HMVIGKHSGSHTLVNDLAKRGITLDKEESATLLEMVRKAAVGLHRSISSDELYGLYKDMKSGQDPFEDS" have soluble fraction (log2) greater than or equal to -0.2?
# output Met

# input Given the entry "HMSMTVHGALRLLQLPTIADRPYTLKEIREAYREQAQNHHPDAGGSADAMRRLNEAYQFLKERYRQA" , answer whether its soluble fraction (log2) meets or surpasses -0.2.
# output Met
